- Measured target: Carbonic anhydrase 9 (Homo sapiens, UniProt Q16790)
- Test protocol: Inhibition of human recombinant carbonic anhydrase 9 preincubated for 10 mins by CO2 hydration stopped-flow assay
Readout type: Ki (pM)
Write it as a number; the unit pM goes unstated.

In the examples that follow, each entry is paired with its recorded Ki.
given_smiles=COc1ccc(CC(=O)Nc2ccc(S(N)(=O)=O)cc2)cc1 readout_type=Ki unit_name=pM value=320
given_smiles=NS(=O)(=O)c1ccc(CNC(=O)Cc2ccc(Cl)cc2)cc1 readout_type=Ki unit_name=pM value=530

Now take the following compound into account.
Incoming: Give reported Ki value for "NS(=O)(=O)c1ccc(NC(=O)Cc2ccc(Cl)cc2)c(Br)c1"
Outgoing: 1200

----------
- Measured target: Carbonic anhydrase 12 (Homo sapiens)
- Sequence (O43570 whole entry): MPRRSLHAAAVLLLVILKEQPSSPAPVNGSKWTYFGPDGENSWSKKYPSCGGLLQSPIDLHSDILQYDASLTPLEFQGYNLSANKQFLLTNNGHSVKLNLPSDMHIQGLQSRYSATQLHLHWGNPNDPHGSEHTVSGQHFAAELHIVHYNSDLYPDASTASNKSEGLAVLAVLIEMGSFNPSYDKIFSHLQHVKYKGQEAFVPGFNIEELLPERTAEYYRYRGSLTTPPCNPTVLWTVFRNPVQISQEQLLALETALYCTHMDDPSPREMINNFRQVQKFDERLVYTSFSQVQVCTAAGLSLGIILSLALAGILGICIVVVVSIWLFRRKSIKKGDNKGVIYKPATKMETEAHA
- Test protocol: Inhibition of human recombinant carbonic anhydrase 12 preincubated for 10 mins by CO2 hydration stopped-flow assay
Readout type: Ki (nM)
Write it as a number; the unit nM goes unstated.

given_smiles=NS(=O)(=O)c1ccc(CCNC(=O)Cc2ccc(Cl)cc2)cc1 readout_type=Ki value=3.4

Now take the following compound into account.
Incoming: Give reported Ki value for "COc1ccc(CC(=O)NCCc2ccc(S(N)(=O)=O)cc2)cc1"
Outgoing: 0.43

----------
- Measured target: Carbonic anhydrase 9 (Homo sapiens, UniProt Q16790)
- Test protocol: Inhibition of human recombinant carbonic anhydrase 9 preincubated for 10 mins by CO2 hydration stopped-flow assay
Readout type: pKi
Schema: pKi number; meaning minus log10 of the concentration expressed in molar units.

In the examples that follow, each entry is paired with its recorded pKi.
given_smiles=NS(=O)(=O)c1ccc(NC(=O)Cc2ccc(Cl)cc2)c(Cl)c1 readout_type=pKi value=8.20
given_smiles=NS(=O)(=O)c1ccc(NC(=O)Cc2ccc(Cl)cc2)c(F)c1 readout_type=pKi value=8.11

Now take the following compound into account.
Incoming: Give reported pKi value for "COc1ccc(CC(=O)NCc2ccc(S(N)(=O)=O)cc2)cc1"
Outgoing: 9.35

----------
- Measured target: Carbonic anhydrase 9 (Homo sapiens)
- Test protocol: Inhibition of human recombinant carbonic anhydrase 9 preincubated for 10 mins by CO2 hydration stopped-flow assay
Entries are grouped by Ki into these classes: low = under 0.6 nM, moderate = from 0.6 nM up to 2 nM, high = 2 nM and over

Incoming: Class (by measured Ki) for "NS(=O)(=O)c1ccc(NC(=O)Cc2ccccc2Br)c(Br)c1"
Outgoing: low

----------
pKi for assorted compounds
- Measured target: Carbonic anhydrase 9 (Homo sapiens)
- Test protocol: Inhibition of human recombinant carbonic anhydrase 9 preincubated for 10 mins by CO2 hydration stopped-flow assay
Schema: pKi number; meaning minus log10 of the concentration expressed in molar units.

In the examples that follow, each entry is paired with its recorded pKi.
given_smiles=NS(=O)(=O)c1ccc(NC(=O)Cc2ccc(F)cc2)c(F)c1 measured_target="Carbonic anhydrase 9 (Homo sapiens)" readout_type=pKi value=8.14
given_smiles=NS(=O)(=O)c1nnc(NC(=O)Cc2ccc(F)cc2)s1 measured_target="Carbonic anhydrase 9 (Homo sapiens)" readout_type=pKi value=8.68
given_smiles=COc1ccc(CC(=O)Nc2ccc(S(N)(=O)=O)cc2Cl)cc1 measured_target="Carbonic anhydrase 9 (Homo sapiens)" readout_type=pKi value=9.39
given_smiles=NS(=O)(=O)c1nnc(NC(=O)Cc2ccccc2Br)s1 measured_target="Carbonic anhydrase 9 (Homo sapiens)" readout_type=pKi value=9.21
given_smiles=NS(=O)(=O)c1ccc(NC(=O)Cc2ccc(F)cc2)cc1 measured_target="Carbonic anhydrase 9 (Homo sapiens)" readout_type=pKi value=8.33

Incoming: Give reported pKi value for "NS(=O)(=O)c1ccc(NC(=O)Cc2ccccc2Br)c(F)c1"
Outgoing: 8.80

Incoming: Give reported pKi value for "NS(=O)(=O)c1ccc(CCNC(=O)Cc2ccc(Cl)cc2)cc1"
Outgoing: 8.92

Incoming: Give reported pKi value for "COc1ccc(CC(=O)NCCc2ccc(S(N)(=O)=O)cc2)cc1"
Outgoing: 9.60

Incoming: Give reported pKi value for "COc1ccc(CC(=O)Nc2nnc(S(N)(=O)=O)s2)cc1"
Outgoing: 9.51

Incoming: Give reported pKi value for "NS(=O)(=O)c1ccc(CNC(=O)Cc2ccccc2Br)cc1"
Outgoing: 9.00

----------
- Measured target: UniProtKB Q16790
- Test protocol: Inhibition of human recombinant carbonic anhydrase 9 preincubated for 10 mins by CO2 hydration stopped-flow assay
Readout type: Ki (nM)
Write it as a number; the unit nM goes unstated.

In the examples that follow, each entry is paired with its recorded Ki.
given_smiles=COc1ccc(CC(=O)Nc2ccc(S(N)(=O)=O)cc2Br)cc1 readout_type=Ki unit_name=nM value=0.62
given_smiles=NS(=O)(=O)c1ccc(NC(=O)Cc2ccc(Cl)cc2)cc1 readout_type=Ki unit_name=nM value=72.5
given_smiles=NS(=O)(=O)c1ccc(CCNC(=O)Cc2ccccc2Br)cc1 readout_type=Ki unit_name=nM value=0.57
given_smiles=COc1ccc(CC(=O)Nc2ccc(S(N)(=O)=O)cc2F)cc1 readout_type=Ki unit_name=nM value=1.8
given_smiles=NS(=O)(=O)c1ccc(CCNC(=O)Cc2ccc(F)cc2)cc1 readout_type=Ki unit_name=nM value=6.5

Incoming: Give reported Ki value for "NS(=O)(=O)c1nnc(NC(=O)Cc2ccc(Cl)cc2)s1"
Outgoing: 1.3

Incoming: Give reported Ki value for "NS(=O)(=O)c1ccc(NC(=O)Cc2ccccc2Br)cc1"
Outgoing: 0.44

Incoming: Give reported Ki value for "NS(=O)(=O)c1ccc(NC(=O)Cc2ccc(F)cc2)c(Br)c1"
Outgoing: 5

Incoming: Give reported Ki value for "NS(=O)(=O)c1ccc(NC(=O)Cc2ccccc2Br)c(Cl)c1"
Outgoing: 0.74

Incoming: Give reported Ki value for "NS(=O)(=O)c1ccc(NC(=O)Cc2ccc(F)cc2)c(Cl)c1"
Outgoing: 10.1

Values from ChEMBL document CHEMBL2413012
